- Test system: U-251
- Experiment: NCI tumour cell line growth inhibition, 48 h
Activity calls are given as the source filed them. No stated cut-off is given here; in the data, active = GI50 up to about 1.1 µM and inactive = higher.
Outcomes: Y (active), N (inactive)

>  <Molecule>
CCOC(=O)c1c2cccccc-2nc1Nc1cccc2c(C)ccnc12

>  <Target Or System>
U-251

>  <Assigned Label>
N

$$$$
>  <Molecule>
CC(C)(C)C(=O)OCC1CCC(n2cnc3c(=O)[nH]c(N)nc32)O1 (stereo not given)

>  <Target Or System>
U-251

>  <Assigned Label>
N

$$$$
>  <Molecule>
COc1cccc(/C(C=O)=C(\Cl)c2ccc(OC)c(OC)c2)c1

>  <Target Or System>
U-251

>  <Assigned Label>
N

$$$$
>  <Molecule>
COC(=O)/C=C\C(C#N)(C#N)/N=C/c1cc(Br)cs1

>  <Target Or System>
U-251

>  <Assigned Label>
N

$$$$
>  <Molecule>
CN1Cc2ccccc2C2(COc3ccccc3C2=O)C1 (stereo not given)

>  <Target Or System>
U-251

>  <Assigned Label>
N

$$$$
>  <Molecule>
Cc1ccccc1/N=C/N(C)C

>  <Target Or System>
U-251

>  <Assigned Label>
N

$$$$
>  <Molecule>
O=[N+]([O-])c1cc(C(F)(F)F)cc([N+](=O)[O-])c1CCl

>  <Target Or System>
U-251

>  <Assigned Label>
N

$$$$
>  <Molecule>
COC(=O)Nc1nc(=O)c2cc(OC)c(OC)cc2[nH]1

>  <Target Or System>
U-251

>  <Assigned Label>
N

$$$$
>  <Molecule>
Cc1cccc(C)c1NC(=O)/C(Cl)=C(/Cl)C(=O)O

>  <Target Or System>
U-251

>  <Assigned Label>
N

$$$$
>  <Molecule>
Cc1ccc2nnc(NS(=O)(=O)c3cc(C)c(Cl)cc3S)n2n1

>  <Target Or System>
U-251

>  <Assigned Label>
N

$$$$
>  <Molecule>
FC1=C2C3CCC(C3)C2C1(F)F (stereo not given)

>  <Target Or System>
U-251

>  <Assigned Label>
N

$$$$
>  <Molecule>
C1CCSCCCCSCCCCSCCCCSC1

>  <Target Or System>
U-251

>  <Assigned Label>
N

$$$$
>  <Molecule>
COC(=O)C12C3C4C1C1C2C3C41C(=O)N(C(C)C)C(C)C (stereo not given)

>  <Target Or System>
U-251

>  <Assigned Label>
N

$$$$
>  <Molecule>
C/C(=N/NC(=S)Nc1ccccc1C)c1ccccn1

>  <Target Or System>
U-251

>  <Assigned Label>
Y

$$$$
>  <Molecule>
CC(C#N)(c1ccccc1)N(CCc1ccccc1)C(=O)Oc1ccccc1 (stereo not given)

>  <Target Or System>
U-251

>  <Assigned Label>
N

$$$$
>  <Molecule>
COc1cc(C(c2cc(OC)c(OC)c(OC)c2)N2C(=O)CCC2C(=O)O)cc(OC)c1OC (stereo not given)

>  <Target Or System>
U-251

>  <Assigned Label>
N

$$$$
>  <Molecule>
Cc1cc(O)c2c(c1)C(=O)C=C(Br)C2=O

>  <Target Or System>
U-251

>  <Assigned Label>
N

$$$$
>  <Molecule>
Cn1c(=O)oc2cc(C(=S)N3CCCCC3)ccc21

>  <Target Or System>
U-251

>  <Assigned Label>
N

$$$$
>  <Molecule>
COC(CN(C=O)[C@@H](c1ccc(Cl)cc1)c1cc2ccccc2o1)OC

>  <Target Or System>
U-251

>  <Assigned Label>
N

$$$$
>  <Molecule>
CSC(=S)NNC(=O)c1ccncc1

>  <Target Or System>
U-251

>  <Assigned Label>
N

$$$$
>  <Molecule>
Cc1ccc(C)c(NC(=O)/C(=N\NC(N)=S)C(C#N)c2ccccc2)c1 (stereo not given)

>  <Target Or System>
U-251

>  <Assigned Label>
N

$$$$
>  <Molecule>
CC12CCCCC1=[N+]([O-])C(C)(C)N2O (stereo not given)

>  <Target Or System>
U-251

>  <Assigned Label>
N

$$$$
>  <Molecule>
c1ccc(/N=C(/Nc2ccccc2)N2CCCCC2)cc1

>  <Target Or System>
U-251

>  <Assigned Label>
N

$$$$
>  <Molecule>
COc1ccc2c(=O)c(-c3cc4c(cc3OC)OCO4)coc2c1

>  <Target Or System>
U-251

>  <Assigned Label>
N

$$$$
>  <Molecule>
COc1cc(CNC(=O)CCCCCCCC/C=C/Br)ccc1O

>  <Target Or System>
U-251

>  <Assigned Label>
N

$$$$
